# system: [35S]-TBPS binding, rat brain cortical membranes (GABAA receptor)
# assayProcedure: Steroid inhibition of [35S]-TBPS binding
# conditions: 3 nM [35S]-TBPS, in the presence of 5 mM GABA, 90 min at room temp
pIC50: −log10 of the molar value.
Overview of reported pIC50 across a group of molecules:

C[C@H]1[C@H]2[C@@H]3CC[C@@H]4C[C@](C)(O)CC[C@@H]4[C@H]3CC[C@]2(C)[C@@H]([C@@](C)(O)Cn2cc(C#N)cn2)C[C@@H]1C ... > 7.00
C[C@@]1(O)CCC[C@H]2[C@H](CC[C@@H]3[C@@H]2CC[C@@]2(C)[C@H]3CC[C@@H]2[C@@](C)(O)Cn2cc(C#N)cn2)C1 ... 6.00 to 7.00
C[C@]1(O)CC[C@@H]2CC[C@@H]3[C@H](CC[C@@]4(C)[C@H]3CC[C@@H]4[C@@](C)(O)Cn3cc(C#N)cn3)[C@@]2(C)CC1 ... 6.00 to 7.00
CCC[C@@]1(O)CC[C@H]2[C@@H](CC[C@@H]3[C@@H]2CC[C@@]2(C)[C@H]3CCC[C@@H]2[C@@](C)(O)Cn2cc(C#N)cn2)C1 ... 6.00 to 7.00

Okay, now this molecule:
Which pIC50 is reported for this molecule? CCC[C@@]1(O)CC[C@H]2[C@H](CC[C@@H]3[C@@H]2CC[C@@]2(C)[C@H]3[C@H](C)CC[C@@H]2[C@@](C)(O)Cn2cc(C#N)cn2)C1 (single isomer, unassigned)
> 7.00

====

# system: [35S]-TBPS binding, rat brain cortical membranes (GABAA receptor)
# assayProcedure: Steroid inhibition of [35S]-TBPS binding
# conditions: 3 nM [35S]-TBPS, in the presence of 5 mM GABA, 90 min at room temp
reportedMetric: IC50

// below: answered compounds
CC[C@@]1(O)CC[C@H]2[C@@H](CC[C@@H]3[C@@H]2CC[C@@]2(C)[C@H]3CCC[C@@H]2[C@@](C)(O)Cn2cc(C#N)cn2)C1 ... 100 to 1000 nM
C[C@]1(O)CCC2=CC[C@H]3[C@@H]4CC[C@H]([C@](C)(O)Cn5cc(C#N)cn5)[C@@]4(C)CC[C@@H]3[C@@]2(C)CC1 ... 100 to 1000 nM
C[C@]1(O)CCC2=CC[C@H]3[C@@H]4CC[C@H]([C@@](C)(O)Cn5cc(C#N)cn5)[C@@]4(C)CC[C@@H]3[C@@]2(C)CC1 ... < 100 nM

Which IC50 is reported for this compound? C[C@@]1(O)CC[C@@]2(C)[C@H](CC[C@@H]3[C@@H]2CC[C@@]2(C)[C@H]3CCC[C@@H]2[C@@](C)(O)Cn2cc(C#N)cn2)C1
100 to 1000 nM

Which IC50 is reported for this compound? CCC[C@@]1(O)CC[C@@]2(C)[C@@H](CC[C@@H]3[C@@H]2CC[C@@]2(C)[C@H]3CCC[C@@H]2[C@@](C)(O)Cn2cc(C#N)cn2)C1
≥ 1000 nM

Which IC50 is reported for this compound? C[C@@H]1CC[C@H]([C@](C)(O)Cn2cc(C#N)cn2)[C@@]2(C)CC[C@H]3[C@@H](CC[C@@H]4C[C@](C)(O)CC[C@@H]43)[C@H]12
< 100 nM

Which IC50 is reported for this compound? C[C@H]1[C@H]2[C@@H]3CC[C@@H]4C[C@](C)(O)CC[C@@H]4[C@H]3CC[C@]2(C)[C@@H]([C@](C)(O)Cn2cc(C#N)cn2)C[C@@H]1C
< 100 nM

Which IC50 is reported for this compound? C[C@@]1(O)CCC[C@H]2[C@H](CC[C@@H]3[C@@H]2CC[C@@]2(C)[C@H]3CC[C@@H]2[C@](C)(O)Cn2cc(C#N)cn2)C1
< 100 nM

Which IC50 is reported for this compound? CC[C@@]1(O)CC[C@H]2[C@H](CC[C@@H]3[C@@H]2CC[C@@]2(C)[C@H]3CCC[C@@H]2[C@](C)(O)Cn2cc(C#N)cn2)C1
100 to 1000 nM

Which IC50 is reported for this compound? CCC[C@@]1(O)CC[C@H]2[C@H](CC[C@@H]3[C@@H]2CC[C@@]2(C)[C@H]3CCC[C@@H]2[C@](C)(O)Cn2cc(C#N)cn2)C1
< 100 nM

====

# system: [35S]-TBPS binding, rat brain cortical membranes (GABAA receptor)
# assayProcedure: Steroid inhibition of [35S]-TBPS binding
# conditions: 3 nM [35S]-TBPS, in the presence of 5 mM GABA, 90 min at room temp
Overview of reported IC50 across a group of compounds:

// below: answered compounds
C[C@@H]1CC[C@H]([C@@](C)(O)Cn2cc(C#N)cn2)[C@@]2(C)CC[C@H]3[C@@H](CC[C@@H]4C[C@](C)(O)CC[C@@H]43)[C@H]12 ... < 100 nM
CCC[C@@]1(O)CC[C@H]2[C@@H](CC[C@@H]3[C@@H]2CC[C@@]2(C)[C@H]3CCC[C@@H]2[C@](C)(O)Cn2cc(C#N)cn2)C1 ... 100 to 1000 nM

Okay, now this compound:
Which IC50 is reported for this compound? COC[C@@]1(O)CC[C@H]2[C@H](CC[C@@H]3[C@@H]2CC[C@@]2(C)[C@H]3[C@H](C)CC[C@@H]2[C@@](C)(O)Cn2cc(C#N)cn2)C1 (single isomer, unassigned)
< 100 nM
